# Target: Caspase-3 (Homo sapiens)
# Assay Method Text: Inhibitory activity against Caspase-3
Each entry falls into one class according to its k3/Ki; the ranges are low end: < 40000 M⁻¹ s⁻¹; middle: ≥ 40000 M⁻¹ s⁻¹ and < 80000 M⁻¹ s⁻¹; high end: ≥ 80000 M⁻¹ s⁻¹

Query: For the record C[C@H](NC(=O)C(=O)Nc1ccccn1)C(=O)N[C@@H](CC(=O)O)C(=O)COc1c(F)c(F)cc(F)c1F , report the class its k3/Ki corresponds to.
Reply: middle

Query: Form field 'band' for C[C@H](NC(=O)C(=O)Nc1ccccc1Br)C(=O)N[C@@H](CC(=O)O)C(=O)COc1c(F)c(F)cc(F)c1F
Reply: high end

Query: Sort C[C@H](NC(=O)C(=O)Nc1ccccc1C(C)(C)C)C(=O)N[C@@H](CC(=O)O)C(=O)COP(=O)(c1ccccc1)c1ccccc1 into one of the categories.
Reply: high end

Query: For the record C[C@H](NC(=O)C(=O)Nc1ccccc1-c1ccc[nH]1)C(=O)N[C@@H](CC(=O)O)C(=O)COc1c(F)c(F)cc(F)c1F , report the class its k3/Ki corresponds to.
Reply: low end

Query: For the record C[C@H](NC(=O)C(=O)Nc1cccc2ccccc12)C(=O)N[C@@H](CC(=O)O)C(=O)COc1c(F)c(F)cc(F)c1F , report the class its k3/Ki corresponds to.
Reply: middle

Query: For this molecule, which bin applies? C[C@H](NC(=O)C(=O)Nc1ccccc1Cl)C(=O)N[C@@H](CC(=O)O)C(=O)COP(=O)(c1ccccc1)c1ccccc1
Reply: high end

Query: Which category does the recorded k3/Ki put C[C@H](NC(=O)C(=O)Nc1ccccc1Cl)C(=O)N[C@@H](CC(=O)O)C(=O)COc1c(F)c(F)cc(F)c1F in?
Reply: high end

Query: State the class of the molecule shown: C[C@H](NC(=O)C(=O)Nc1cc(C(C)(C)C)ccc1C(C)(C)C)C(=O)N[C@@H](CC(=O)O)C(=O)COC(=O)c1c(Cl)cccc1Cl
Reply: low end

Query: Bin this entry: C[C@H](NC(=O)C(=O)Nc1ccccc1-c1ccccc1)C(=O)N[C@@H](CC(=O)O)C(=O)COC(=O)c1c(Cl)cccc1Cl
Reply: low end

Query: Band for C[C@H](NC(=O)C(=O)Nc1ccccc1-c1ccccc1)C(=O)N[C@@H](CC(=O)O)C(=O)COP(=O)(c1ccccc1)c1ccccc1 ?
Reply: low end

Query: Entry C[C@H](NC(=O)C(=O)Nc1ccccc1Cl)C(=O)N[C@@H](CC(=O)O)C(=O)COC(=O)c1c(Cl)cccc1Cl belongs to which category?
Reply: high end

Query: Kindly state the category for this molecule: C[C@H](NC(=O)C(=O)Nc1cc(C(C)(C)C)ccc1C(C)(C)C)C(=O)N[C@@H](CC(=O)O)C(=O)COP(=O)(c1ccccc1)c1ccccc1
Reply: low end

Query: Hi, small favor: classify C[C@H](NC(=O)C(=O)Nc1cc(C(C)(C)C)ccc1C(C)(C)C)C(=O)N[C@@H](CC(=O)O)C(=O)COc1c(F)c(F)cc(F)c1F by its k3/Ki when you get a moment.
Reply: low end

Query: Exam item: assign Cc1c(C(=O)N[C@H](C(=O)NC(CC(=O)O)C(=O)CF)C(C)C)n(C)c2ccccc12 (stereo not given in full) to the correct category.
Reply: low end

The reported numbers originate from ChEMBL document CHEMBL1141033.
